For each entry below, report its Ratio IC50 value.
MEASUREMENT DESCRIPTION: Multidrug resistance reversal activity in human KB/VCR cells assessed as reduction in vinblastine IC50 at 25 uM incubated for 72 hrs by sulforhodamine B assay relative to untreated control
Assay type: functional
Give bare numbers.

Solved entries:
Value of measured Ratio IC50 for the entry CCCCC[C@@H](CCCCCCCCCC(=O)OC)O[C@@H]1O[C@H](C)[C@H](O)[C@H](O)[C@H]1O[C@@H]1O[C@@H](C)[C@H](O[C@@H]2O[C@@H](C)[C@H](O[C@@H]3O[C@@H](C)[C@H](OC(=O)[C@@H](C)CC)[C@@H](O)[C@H]3O)[C@@H](O[C@@H]3O[C@H](CO)[C@@H](O)[C@H](O)[C@H]3O)[C@H]2O)[C@@H](O)[C@H]1O : 2.5

According to the records, this compound CCCCC[C@H]1CCCCCCCCCC(=O)O[C@H]2[C@@H](O)[C@H](O[C@H]3[C@H](O1)O[C@H](C)[C@H](O)[C@@H]3O)O[C@@H](C)[C@@H]2O[C@@H]1O[C@@H](C)[C@H](O[C@@H]2O[C@@H](C)[C@H](O)[C@@H](O)[C@H]2O)[C@@H](O[C@@H]2O[C@H](CO)[C@@H](O)[C@H](O)[C@H]2O)[C@H]1OC(=O)[C@@H](C)CC displays Ratio IC50 of 15.8

For reference, reported Ratio IC50 for CCCCC[C@H]1CCCCCCCCCC(=O)O[C@H]2[C@H](O[C@H]3[C@H](O1)O[C@H](C)[C@H](O)[C@@H]3OC(C)=O)O[C@@H](C)[C@H](O[C@@H]1O[C@@H](C)[C@H](O[C@@H]3O[C@@H](C)[C@H](OC(=O)[C@@H](C)CC)[C@@H](O)[C@H]3O)[C@@H](O[C@@H]3O[C@H](CO)[C@@H](O)[C@H](O)[C@H]3O)[C@H]1OC(=O)[C@@H](C)CC)[C@H]2O stands at 2.3

The record that follows has no Ratio IC50 shown yet.
Notebook: CCCCC[C@H]1CCCCCCCCCC(=O)O[C@H]2[C@@H](O)[C@H](O[C@H]3[C@H](O1)O[C@H](C)[C@H](O)[C@@H]3O)O[C@@H](C)[C@@H]2O[C@@H]1O[C@@H](C)[C@H](O[C@@H]2O[C@@H](C)[C@H](OC(=O)[C@@H](C)CC)[C@@H](O)[C@H]2O)[C@@H](O[C@@H]2O[C@H](CO)[C@@H](O)[C@H](O)[C@H]2O)[C@H]1OC(=O)[C@@H](C)CC , Ratio IC50 read as 142.5

# credit: ChEMBL document CHEMBL3351612
